Values compiled from patent US20140187548A1.

# system_tested: human kinase Mps-1 (Homo sapiens, UniProt P33981)
# Construct: N-terminally GST-tagged human full length recombinant Mps-1 kinase; GST (N)
# Sequence (P33981 whole entry): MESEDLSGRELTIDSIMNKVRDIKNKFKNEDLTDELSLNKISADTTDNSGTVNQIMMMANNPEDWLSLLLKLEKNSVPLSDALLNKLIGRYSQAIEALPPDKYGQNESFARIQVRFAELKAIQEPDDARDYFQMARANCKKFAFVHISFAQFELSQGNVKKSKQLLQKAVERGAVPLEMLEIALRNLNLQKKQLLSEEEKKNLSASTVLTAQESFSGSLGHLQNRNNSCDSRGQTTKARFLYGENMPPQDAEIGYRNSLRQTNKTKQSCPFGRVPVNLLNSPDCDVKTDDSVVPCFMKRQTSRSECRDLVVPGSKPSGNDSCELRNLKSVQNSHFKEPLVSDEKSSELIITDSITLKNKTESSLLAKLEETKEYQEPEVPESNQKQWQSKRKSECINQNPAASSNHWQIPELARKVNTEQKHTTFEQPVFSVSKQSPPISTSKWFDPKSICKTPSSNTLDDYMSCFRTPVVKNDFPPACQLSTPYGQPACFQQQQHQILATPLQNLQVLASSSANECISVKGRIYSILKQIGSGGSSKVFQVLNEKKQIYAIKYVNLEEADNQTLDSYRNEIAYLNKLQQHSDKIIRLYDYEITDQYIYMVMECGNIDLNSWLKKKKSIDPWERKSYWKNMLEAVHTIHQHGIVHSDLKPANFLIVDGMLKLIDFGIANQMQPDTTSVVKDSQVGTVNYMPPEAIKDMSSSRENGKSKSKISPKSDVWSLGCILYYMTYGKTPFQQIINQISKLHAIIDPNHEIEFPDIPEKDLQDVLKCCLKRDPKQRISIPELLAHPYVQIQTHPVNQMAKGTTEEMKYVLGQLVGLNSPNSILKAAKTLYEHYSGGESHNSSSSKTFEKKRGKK
# test_protocol: Mps-1 kinase assay (TR-FRET)
# stated_conditions: N-terminally GST-tagged human full length recombinant Mps-1; 10 μM ATP; 1 μM peptide substrate; 15 min pre-incubation; 60 min at 22° C.
property_label: IC50

// known answers, use as guide
compound: CC(C)CNc1nc(-c2ccc3[nH]ccc3c2)cn2c(-c3ccc(C(=O)NC4CC4)cc3)cnc12 [Example 1-74]
IC50: 37.7 nM
//
compound: CC(C)CNc1nc(-c2ccc(C(=O)NC3CC3)c(Cl)c2)cn2c(-c3ccc(C(=O)NC4CC4)cc3)cnc12 [Example 1-83]
IC50: 6.9 nM
//
compound: CC(C)CNc1nc(-c2ccc(C(=O)NC(C)C)c(F)c2)cn2c(-c3ccc(C(=O)NC4CC4)cc3)cnc12 [Example 1-86]
IC50: 6.2 nM

Read the next record carefully.
get_value(item= CC(C)CNc1nc(-c2ccc(N3CCN(C)CC3)cc2)cn2c(-c3ccc(C(=O)NC4CC4)cc3)cnc12 [Example 1-90] , readout=IC50) returns 1.6 nM

====

# system_tested: human kinase Mps-1 (Homo sapiens, UniProt P33981)
# Construct: N-terminally GST-tagged human full length recombinant Mps-1 kinase; GST (N)
# test_protocol: Mps-1 kinase assay (TR-FRET)
# stated_conditions: N-terminally GST-tagged human full length recombinant Mps-1; 10 μM ATP; 1 μM peptide substrate; 15 min pre-incubation; 60 min at 22° C.
This section presents compounds with their documented pIC50 values.
Schema: pIC50 number; meaning minus log10 of the concentration expressed in molar units.

// known answers, use as guide
compound: CC(C)CNc1nc(-c2cccc(CO)c2)cn2c(-c3ccc(C(=O)NC4CC4)cc3)cnc12 [Example 1-5]
system_tested: human kinase Mps-1 (Homo sapiens, UniProt P33981)
pIC50: 8.85
--
compound: O=C(NC1CC1)c1ccc(-c2cnc3c(NCc4cc[nH]n4)nc(-c4ccccc4)cn23)cc1 [Example 2-55]
system_tested: human kinase Mps-1 (Homo sapiens, UniProt P33981)
pIC50: 8.57
--
compound: CC(C)CNc1nc(-c2ccc(Oc3ccccc3)cc2)cn2c(-c3ccc(C(=O)NC4CC4)cc3)cnc12 [Example 1-47]
system_tested: human kinase Mps-1 (Homo sapiens, UniProt P33981)
pIC50: 7.10
--
compound: CC(C)(O)CNc1nc(-c2cc(F)c(F)cc2F)cn2c(-c3ccc(C(=O)NC4CC4)cc3)cnc12 [Example 1-133]
system_tested: human kinase Mps-1 (Homo sapiens, UniProt P33981)
pIC50: 8.21
--
compound: O=C(NC1CC1)c1ccc(-c2cnc3c(NCCCN4CCOCC4)nc(-c4ccccc4)cn23)cc1 [Example 2-3]
system_tested: human kinase Mps-1 (Homo sapiens, UniProt P33981)
pIC50: 8.16
--
compound: O=C(NC1CC1)c1ccc(-c2cnc3c(NCC4CCCCC4)nc(-c4ccccc4)cn23)cc1 [Example 2-66]
system_tested: human kinase Mps-1 (Homo sapiens, UniProt P33981)
pIC50: 8.21
--
compound: CC(C)CNc1nc(-c2ccc(Cl)cc2Cl)cn2c(-c3ccc(C(=O)NC4CC4)cc3)cnc12 [Example 1-87]
system_tested: human kinase Mps-1 (Homo sapiens, UniProt P33981)
pIC50: 8.17
--
compound: CCNc1nc(-c2ccccc2)cn2c(-c3ccc(C(=O)NC4CC4)cc3)cnc12 [Example 2-16]
system_tested: human kinase Mps-1 (Homo sapiens, UniProt P33981)
pIC50: 8.48

Read the next record carefully.
get_value(item= Cc1cc(C)cc(-c2cn3c(-c4ccc(C(=O)NC5CC5)cc4)cnc3c(NCC(C)C)n2)c1 [Example 1-39] , readout=pIC50) returns 7.49
